target: pooled human IgG
Listed here: items and their measured Enzyme Activity Endpoint Assay: Fc.
measured-endpoint: Enzyme Activity Endpoint Assay: Fc

protein	result
PRT-287 (protein) MVTSVWTKGVTPPAKFTQGEDVFHAPYVANQGWYDITKEFNGKDDLLCGAATAGNMLHWWFDQNKEKIEAYLKKHPDKQKIMFGDQELLDVRKVINTKGDQTNSELFNYFRDKAFPNLSARRIGVMPDLVLDMFINGYYLNVYKTQTTDVNRTYQEKDRRGGIFDAVFTRGDQSKLLTSRHDFKEKNLKEISDLIKKELTEGKALGLSHTYANVRIGHVINLWGADFDSNGNLKAIYVTDSDSNASIGMKKYGVGVNSAGKVAISAKEIKEDNIGAQVLGLFTLSTGQDSWNQTN	392 ng/µL
PRT-39 (protein) MANQEIRYSEVTPYHVTSVWTKGVTPPANFTQGEDVFHAPYVANQGWYDITKTFNGKDDLLCGAATAGNMLHWWFDQNKDQIKRYLEEHPEKQKINFNGEQMFDVKEAIDTKNHQLDSKLFEYFKEKAFPYLSTKHLGVFPDHVIDMFINGYRLSLTNHGPTPVKEGSKDPRGGIFDAVFTRGDQSKLLTSRHDFKEKNLKEISDLIKQELTEGKALGLSHTYANVRINHVINLWGADFDSNGNLKAIYVTDSDSNASIGMKKYFVGVNSAGKVAISAKEIKEDNIGAQVLGLFTLSTGQDSWNQTN	116 ng/µL
PRT-37 (protein) MANQEIRYSEVTPYHVTSVWTKGVTPPANFTQGEDVFHAPYVANQGWYDITKTFNGKDDLLCGAATAGNMLHWWFDQNKDQIKRYLEEHPEKQKINFNGEQMFDVKEAIDTKNHQLDSKLFEYFKEKAFPYLSTKHLGVFPDHVIDMFINGYRLSLTNHGPTPVKEGSKDPRGGIFDAVFTRGDQSKLLTSRHDFKEKTLKEISDLIKKELTEGKALGLSHTYANVRINHVINLWGADFDSNGNLKAIYVTDSDSNASIGMKKYFVGVNSAGKVAISAKEIKEDNIGAQVLGLFTLSTGQDSWNQTN	79 ng/µL
PRT-537 (protein) MANQEIRYSSDSEWANKKVWVYGITPPEEGAWFYSTYYLPWKKEYGWYDCNKRNPTADGMMCWAASASNLLHWWIAQNKEYIDLYGDKYKGPDKINFNGEQMFDVKEYIDPLDKPQESDIFQCFIDKSFADLSTKHEAGKGDAGINWFIHGIIPSSPAHGPTPVKLRYPYNPAGYFKDVFPRGDGVVLLGNNGDFKELGKERFNETIKDALANKKGIGLSIGPVNVRSSHVVTIWGAEFDENGDVSYIYMADNNDRWGVGCIRYQIVYEEGGTYTCYKTEIIPSDRPIPINRLVTLELGEEYWKQTNLEHHHHHH	0 ng/µL
PRT-50 (protein) MANQEIRYSEVTPYHVTSVWTKGVTPPANFTQGEDVFHAPYVANQGWYDINKTFNGKDDLLCGAATAGNMLHWWFDQNKEQIERYLKEHPEKGKINFNGEQMFDVKEAIDTKNNQTDSKLFEYFKEKAFPYLSTKHLGVFPDRVLDMFINGYRLSLTNHGPTPVKEGSKDPRGGFFDDVFGRGDQSKLLTSRHDFKEKNLEEISDLIKKELTEGKALGLSHTYANVRINHVINLWGADFDSNGNLKAIYVTDSDSNASVGMKKYFVGVNSAGKVAISAKEIKEDNIGAQVLGLFTLSTGQDSWNQTN	5 ng/µL
PRT-562 (protein) MANQEIRYSKATPSHITSVWTKGVTPPEQFIQNEDVLHAPYIANQGWYDITKTFNGKDDLLCGAATAGNMLHWWFDQNKEQIENYLKKHPEKQKINFNGEQMFDVKEAIDTKDSQTNSALFSYFKDKAFPYLSTKHLGVFPDHVIDMFINGYRLSLTNHGPTPVKEQTKDPRGGIFDAVFTRGDQSKLLTSRHDFKEKTLNEISQLIKQELTEGKALGLSHTYANVRINHVINLWGADFNAEGNLEAIYVTDSDSNASIGMKKYYVGVNSAGKVAISAKEIEGDNIGAQVLGLFTLSTGQDIWQQTNLEHHHHHH	380 ng/µL
PRT-589 (protein) MRNQTTTYSEVTPSHITSVWTKGVTPPEQFIQGEDVFHAPYIANQGWYDITKTFNGKDDLLCGAATAGNMLHWWFDQNKEQIENYLKKHPEKQKINFNNEEMFDVREAINTKDSQTDSALFSYFKDKAFPYLSAKHLGVFPDHVIDMFINGYRLSLTNHDKTDVNRGTKDPRGGIFDAVFTRGDQSKLLTARHDFKNKTLKEISDLIKQELTEGKALGLSHTYANVRINHVINLWGADFDAEGNLEAIYVTDSDSNASIGMKKYYVGVNSAGKVAISAKKIEGDNIGAQVLGLFTLSTGQDIWQQTNLEHHHHHH	352 ng/µL
PRT-12 (protein) MANQEIRYSEVTPYHVTSVWTKGVTPPADFTQGEDVFHAPYKANQGWYDITKTFNGKDDLLCGAATAGNMLHWWFDQNKDQIERYLKEHPEKQKINFNGEQMFDVKEAIDTKDSQTDSKLFEYFKEKAFPYLSTKHLGVFPDHVIDMFINGYRLSLTNHGPTPVKRGSKDPRGGFFDAVFTRGDQSKLLTSRHDFKEKTLNEISDLIKKELTEGKALGLSHTYANVRINHVINLWGADFDSNGNLEAIYVTDSDSNASIGMKKYFVGVNSAGKVAISAKEIKEDNIGAQVLGLFTLSTGQDIWEQTN	122 ng/µL
PRT-51 (protein) MANQEIRYSEVTPYHVTSVWTKGVTPPANFTQGEDVFHAPYVANQGWYDINKTFNGKDDLLCGAATAGNMLHWWFDQNKDYIDRYLKKHPEKAKINFNGEQMFDVKEAIDTKNDQLDSKLFEYFKEKAFPYLSTKHLGVFPDLVLDMFINGYRLSLTNHGPTPVKEGSKDPRGGFFDDVFTRGDQSKLLTSRHDFKEKNLEEISDLIKKELTEGKALGLSHTYANVRINHVINLWGADFDENGNLKAIYVTDSDSNASIGMKRYFVGVNSAGKVAISAKEIKEDNIGAQVLGLFTLSTGQDSWNQTN	11 ng/µL
